Hello, the source for this data is ChEMBL document CHEMBL3627711, in case you need it.

target: Beta-galactoside alpha-2,6-sialyltransferase 1 (Homo sapiens) (UniProt P15907); experiment: Ratio of CMP-Neu5Ac Km to compound Ki for human recombinant ST6Gal-1
Sequence (P15907 whole entry): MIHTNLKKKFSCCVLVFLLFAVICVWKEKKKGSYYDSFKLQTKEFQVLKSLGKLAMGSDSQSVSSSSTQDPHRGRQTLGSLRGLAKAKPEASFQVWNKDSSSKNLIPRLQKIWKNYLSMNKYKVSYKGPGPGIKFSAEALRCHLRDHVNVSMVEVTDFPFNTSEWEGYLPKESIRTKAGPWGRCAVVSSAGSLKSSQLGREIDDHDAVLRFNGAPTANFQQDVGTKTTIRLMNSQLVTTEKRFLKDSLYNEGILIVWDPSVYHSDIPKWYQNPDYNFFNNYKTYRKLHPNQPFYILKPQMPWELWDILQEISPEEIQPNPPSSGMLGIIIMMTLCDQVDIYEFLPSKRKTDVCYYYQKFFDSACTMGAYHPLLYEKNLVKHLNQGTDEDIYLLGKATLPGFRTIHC
measurement kind: Ratio

Nc1ccn([C@@H]2O[C@H](COP(=O)(O)OC(C3CCCC3)P(=O)(O)O)[C@@H](O)[C@H]2O)c(=O)n1 (stereo in doubt; 2s)	7.1
CC(=O)NC[C@@H]1C[C@@H](C(OP(=O)(O)OC[C@H]2O[C@@H](n3ccc(N)nc3=O)[C@H](O)[C@@H]2O)P(=O)(O)O)C[C@H]1OCc1ccccc1 (some centres undefined)	48.1

P: CC(=O)N[C@H]1C[C@H](C(OP(=O)(O)OC[C@H]2O[C@@H](n3ccc(N)nc3=O)[C@H](O)[C@@H]2O)P(=O)(O)O)C[C@H]1O (stereo in doubt; 4Ss)
Q: CC(=O)NC[C@@H]1CCC(OP(=O)(O)OC[C@H]2O[C@@H](n3ccc(N)nc3=O)[C@H](O)[C@@H]2O)(P(=O)(O)O)[C@H]1OCc1ccccc1 (stereo in doubt; 48s)
IN: For the pair P and Q , which entry has the numerically smaller recorded Ratio? I would appreciate it if you answered with the label of your choice.
OUT: P
(P: 9.6, Q: 87.3)
